# method: AUC (0 to 72 hrs) in human treated with monohydroxy derivative of OXC at 200 mg, iv administered as single dose by high-performance liquid chromatography
# Assay type: ADME, organism-based
# Design: time < 72 hr, dose 200 mg, route intravenous
# condition_context: plasma
# Lookup of reported AUC(0-t) at 72 h keyed by entry
Numbers only; they are read as µM·h.

                                   compound  value_reported
0  NC(=O)N1c2ccccc2C[C@H](O)c2ccccc21 [ESLICARBAZEPINE]            92.2

Turning now to a further compound:
Can you share its AUC(0-t) at 72 h? I mean this compound: "NC(=O)N1c2ccccc2C[C@@H](O)c2ccccc21"
59.1

###

# method: Drug excretion in human urine assessed as total amount of drug eliminated at 250 mg, iv administered as single dose measured for 72 hrs post-dose by high-performance liquid chromatography
# Type: ADME, organism-based
# condition_context: read-out: Ae
measured_metric: dose excreted at 72 h (%)
Numbers only; they are read as %.

Can you share its dose excreted at 72 h? I mean this compound: NC(=O)N1c2ccccc2CC(O)c2ccccc21 (racemic) [LICARBAZEPINE]
42.8

###

# method: Tmax in human treated with oxcarbazepine at 300 mg, po administered as one-film coated tablet by high-performance liquid chromatography
# Format: ADME, organism-based
# condition_context: in vivo
measured_metric: Tmax (h)
Numbers only; they are read as h.

In [3]: df
Out[3]:
                           chem_smiles  value_reported
0  NC(=O)N1c2ccccc2C[C@@H](O)c2ccccc21             3.5

Turning now to a further compound:
Can you share its Tmax? I mean this compound: "NC(=O)N1c2ccccc2[C@@H](O)[C@H](O)c2ccccc21"
24

###

# method: Renal clearance in human at 150 mg, iv administered as single dose by high-performance liquid chromatography
# Assay type: ADME, organism-based, Kidney
# condition_context: in vivo
measured_metric: CL renal (mL/min)
Numbers only; they are read as mL/min.

Can you share its CL renal? I mean this molecule: NC(=O)N1c2ccccc2CC(O)c2ccccc21 (racemic) [LICARBAZEPINE]
21.8

###

# method: AUC (0 to 72 hrs) in human at 200 mg, iv administered as single dose by high-performance liquid chromatography
# Type: ADME, organism-based
# Set-up: dose 200 mg, time < 72 hr, route intravenous
# condition_context: plasma
measured_metric: AUC(0-t) at 72 h (µM·h)
Numbers only; they are read as µM·h.

Can you share its AUC(0-t) at 72 h? I mean this molecule: NC(=O)N1c2ccccc2CC(O)c2ccccc21 (racemic) [LICARBAZEPINE]
142

###

# Lookup of reported CL renal at 0.5 h keyed by entry
# method: Renal clearance in human treated with monohydroxy derivative of OXC at 250 mg, iv administered as infusion over 30 mins by high-performance liquid chromatography
# Assay type: ADME, organism-based, Kidney
# condition_context: in vivo
Numbers only; they are read as mL/min.

>>> df
                                   molecule    measured_metric  value_reported
0  NC(=O)N1c2ccccc2C[C@H](O)c2ccccc21 [ESLICARBAZEPINE]  CL renal at 0.5 h              15

Can you share its CL renal at 0.5 h? I mean this molecule: "NC(=O)N1c2ccccc2C[C@@H](O)c2ccccc21"
15
